- MEASUREMENT DESCRIPTION: yeast display, Sf9 membrane polyspecificity reagent, FACS + sequencing; frameworks hold sequencing errors
MEASUREMENT KIND: polyreactivity (PSR sort gate)

[
  {
    "SEQUENCE CHAIN": "QVQLVESGGGLVQAGGSLRLSCAASGFTFSTYAMGWYRQAPGKESELVAVISGGDSTSYADSVKGRFTISRDNAKNTVYLQMNSLKPEDTAVYYCAADRYGGYYGDTYYTGLFNYWGQGTQVTVSS",
    "VALUE": "high polyreactivity"
  },
  {
    "SEQUENCE CHAIN": "QVQLVESGGGLVQAGGSLRLSCAASGRTFPKYAMGWYRQATGKERELVAAISSSGGNTYYADSVKGRFTISRDKAKTTVYLQMNSLTPEDTAVYYCAARLPRGAYYYWGQGTQLTVSS",
    "VALUE": "high polyreactivity"
  },
  {
    "SEQUENCE CHAIN": "QVQLVESGGGLVQAGGSLRLSCGASGNTINVNTMGWYRQGPGKERELVAAINSGDNTNYADSVKGRFTISRDNAKNTVYLQMNSLNPVDTAVYSCAAQDYARGVVPGRRAIGYWGQCTQVTVSS",
    "VALUE": "high polyreactivity"
  },
  {
    "SEQUENCE CHAIN": "QVQLVESGGGLVQAGGSLRLSCAASGSTFRYNTMGWYRQAPGKERELVAAINISSSSTYYADSVKGRFTISRDNAKNTVYLQMNSLKPEDTAVYYCANRDYVPIATDENDDYWGQGTQVTVSS",
    "VALUE": "low polyreactivity"
  },
  {
    "SEQUENCE CHAIN": "QVQLVESGGGLVQAGGSLRLSCAASGFTFAVYVMGWYRQAPGKERELVATISISVGSTYYADSVKGRFTISRDNAKNTVYLQMNSLKPEDTAVYYCNADPPPEYYPDKDNYWGQGTQVTVSS",
    "VALUE": "low polyreactivity"
  },
  {
    "SEQUENCE CHAIN": "QVQLVESGGGLVQAGGSLRLSCAAYGYIIDRYAMGWYRPAPGKERELVAAISSDGSTYYADSVKGRFTISRDNAKNTVYLQMNSLKPEDTAVYYGAADGGESAWGGYDYWGQGSQVTVSS",
    "VALUE": "low polyreactivity"
  },
  {
    "SEQUENCE CHAIN": "QVQLVESGGGLVQAGGSLRLSCAASGITIYWYAMGWYRQAPGKERELVAAITRSVGSTYYADSVKGRFTISRDNAKNTVYLQMNSLKPEDTAVYYCAADFYYYGFDYWGQGTQVTVSS",
    "VALUE": "low polyreactivity"
  },
  {
    "SEQUENCE CHAIN": "QVQLVESGGGLVQAGGSLRLSCAASGRTFSWYAMGWYRQAPGKERELVAAITSDGSPYYADSVKGRFTISRDNAKNTVYLQMNSLKPEDTAVYYCAADTVYRSYYWGQGTQVTVSS",
    "VALUE": "low polyreactivity"
  }
]

What value of polyreactivity (PSR sort gate) has been reported for the following sequence? "QVQLVESGGGLVQAGGSLRLSCAASGIIFRYYTMGWYRQAPGKEREFVAAITGSSGSTYADSVKGRFTISRDNAKNTVYLQMNSLKPEDTAVYYCNADSYSIWVYGEYDYWGQGTQVTVSS"
high polyreactivity

What value of polyreactivity (PSR sort gate) has been reported for the following sequence? "QVQLVESGGGLVQAGGSLRLSCAASGITFSRNAMGWYRQAPGTDRELGAVISTRGGRTYYADSVKGRFTISRDNAKNTVYLQMNSLKPEDTAVYYCAASPDPYWRRMDYWGQGTQVTVSS"
high polyreactivity

What value of polyreactivity (PSR sort gate) has been reported for the following sequence? "QVQLVESGGGLVQAGGSLRLSCAASGSIFGPYAMGWYRQAPGKERELVASITNSGSTYYADSVKGRFTISRDNAKNTVYLQMNSLKPEDTAVYYCAVDERTWINDPEEYDYWGQGTQVTVSS"
low polyreactivity

----------
- MEASUREMENT DESCRIPTION: yeast display, Sf9 membrane polyspecificity reagent, FACS + sequencing; frameworks hold sequencing errors
MEASUREMENT KIND: polyreactivity (PSR sort gate)

[
  {
    "SEQUENCE CHAIN": "QVQLVESVGGLVQAGGSLRLSCAASYAMAWYRQAPGKERELVATITRTDRTNYADSVKGRFTISRDNAMNTVYFQMNSLKPEDTAVYDCNKVEWSAPGDSRKYGYWGQGTQVTVSS",
    "VALUE": "low polyreactivity"
  },
  {
    "SEQUENCE CHAIN": "QVQLVESGGGLVQAGGSLRLSCAASGSIFPYVNAMGWYRQAPGKERELVASIPGGGGTKYADSVKGRFTISRDNAKNTVYLQMNSLKPEDTAVYYCNATSGNPASTAWMNYWGQGTQVTVSS",
    "VALUE": "low polyreactivity"
  }
]

----------
- MEASUREMENT DESCRIPTION: yeast display, Sf9 membrane polyspecificity reagent, FACS + sequencing; frameworks hold sequencing errors
MEASUREMENT KIND: polyreactivity (PSR sort gate)

[
  {
    "SEQUENCE CHAIN": "QVQLVESGGGLVQAGGSLRLSCAASGSTFYRYAMGWYRQAPGKERELVAAITRTGGSTYADSVKGRFTISRDNAKNTVYLQMNSLKPEDTAVYYCAVQRYYVSSISPFYYWGQGTQVTVSS",
    "polyreactivity (PSR sort gate)": "low polyreactivity"
  },
  {
    "SEQUENCE CHAIN": "QVQLVESGGGLVQAGGSLRLSCAASGFTFAGYVLGWYRKAPGKDRELVAAISNSGGRTYADSVKGRFTISRDNAKNTVYLQMNSLKPEDTAVYYCAKKPGGFSQASRVDYDYWGQGTQVTVSS",
    "polyreactivity (PSR sort gate)": "low polyreactivity"
  },
  {
    "SEQUENCE CHAIN": "QVQLVESGGGLVQAGGSLRLSCAASGTTFSYNAIVWYRQAPGKERELVAAISGSGGTTYYADSVKGRFTISRDNAKNTVYLEMNSLKPEDTAVYYCDARPFRSWRYDYWGQGTQVTVSS",
    "polyreactivity (PSR sort gate)": "low polyreactivity"
  },
  {
    "SEQUENCE CHAIN": "QVQLVESGGGLVQAGGSLRLSCAASGRTLSGYAMGWYRQAPGKERELVAAISRRGGRTYYADSVKGRFTISRDNAKNTVYLQMNSLKPEDTAVYYCAAQVYTKTGDWQFYYWGQGTQVTVSS",
    "polyreactivity (PSR sort gate)": "high polyreactivity"
  },
  {
    "SEQUENCE CHAIN": "QVQLVESGGGLVQAGGSLRLSCAASGRTFNIYAMGWYRQAPGKERELVAAITFTGGNTYYADSVKGRFTISRDNAKNTVYLQMNSLKPEDTAVYYCNKRLKWRSYDYWGQGTQVTVSS",
    "polyreactivity (PSR sort gate)": "low polyreactivity"
  }
]

What value of polyreactivity (PSR sort gate) has been reported for the following sequence? "QVQLVESGGGLVQARGSLRLSCAASGSTFGWYAMGWYREAPGKERELVAAIYRGGGSTYYADSVKVRFTISRDNAMNTVYLQMNSLKPEDTAVYYCAAYSYYQGGMDYWGEGTQVTVSS"
high polyreactivity

What value of polyreactivity (PSR sort gate) has been reported for the following sequence? "QVQLEESGGGLVQAGGSLRLSCAASGSIFWGYAIGWYRQAPGKERELVAAISNTGSTNYADSVKGRFTISRDNAKNTVYLQMNSLKPEDTAVYYCNASYTYGEMDYWGQGTQVTVSS"
low polyreactivity

What value of polyreactivity (PSR sort gate) has been reported for the following sequence? "QVQLVESGGGLVQAAGSLRLSCAASGRTFYRNAMGWYRQAPGKERELVAAISQSGGSTYYADSVKGRFTISRDNAKNTVYLQMNSLKPEDTAVYYWAAGNSRRVGMDYWGQGTQVTVSS"
high polyreactivity

----------
- MEASUREMENT DESCRIPTION: yeast display, Sf9 membrane polyspecificity reagent, FACS + sequencing; frameworks hold sequencing errors
MEASUREMENT KIND: polyreactivity (PSR sort gate)

Observe how each entry below is paired with its result.
[
  {
    "SEQUENCE CHAIN": "QVQLVESGGGLVQAGGSLRLSCSASGSTFRGYAMGWYRQAPGKDRELVAAISWSGGSTYYADSVKGRFTISRDHAKNTVYLQMNSLKPVDTAVYYCNAVGYLDFEWGQGTQVTVSS",
    "VALUE": "low polyreactivity"
  },
  {
    "SEQUENCE CHAIN": "QVQLVESGGGLVQAGGSLRLSCAASGGIFAWNAMGWYRQAPGKERELVAAISGRGGSTTYADSVKGRFTISRDNAKNTVYLQMNSLKPEDTAVYYCAKRWYSGWYKYDYWGQGTQVTVSS",
    "VALUE": "high polyreactivity"
  },
  {
    "SEQUENCE CHAIN": "QVQLQESGGGLVQAGGSLRLSCAASGTISQEDWKGRYRQAPGKEREFVAAIGLGSNTNYADSLKGRFTISRDNAKNSVYLQMNSLKPEDTAVYYCAVSVWQYSDHVYRGQGTQVTVSS",
    "VALUE": "low polyreactivity"
  },
  {
    "SEQUENCE CHAIN": "QVQLVESGGGLVQAGGSLRLSCAASGRIFGYYVMGWYRPAPGKERELVAAISRSGGSTYYADSVKGRFTISRDNAKNTVYLQMNSLKPEDTAVYYCAKRVSTYGFSGYDYWGQGTQVTVSS",
    "VALUE": "high polyreactivity"
  },
  {
    "SEQUENCE CHAIN": "QVQLVESGGGLFQAGGSLRLSCAASGSIFWSYAMGWYRQAPGKERELVAAISSGGSTNYADSVKGRFTISRDNAKNTVYLQMNSLQPEDTAVYYCNALGAKGYVKGFDYWGQGTQVTVSS",
    "VALUE": "low polyreactivity"
  },
  {
    "SEQUENCE CHAIN": "QVQLVESGGGLVQAGGSLRLSCAASGRTFFYYAMGWYRQAPGKERELFATITKRGGSTYYADSVKGRFTISRDNAKNTVYLQMNSLKPEDTAVYYCAATYYRQGRRYLGYDYWGQGTQVTVSS",
    "VALUE": "high polyreactivity"
  }
]

What value of polyreactivity (PSR sort gate) has been reported for the following sequence? "QVQLVESGGGLVQAGGSLRLSCAASGRIFGGYVMGWYRQAPGKERELVAAISKRGDSTYYADSVKGRFTISRDNAKHTVYLQMNSLKPEDTAVYYCAAVRRGDRGTDMDYWGQGTQVTVSS"
high polyreactivity

What value of polyreactivity (PSR sort gate) has been reported for the following sequence? "QVQLGESGGGLVQAGGSLRLSCAASGSTFPRNAMGWYRQATGKERELVATITSSGGGTYYADSVKGRFTISRDNAKITVYLQMNSLKPEHTAVYYCNADGPAGDAFDYWGQGTQVTVSS"
low polyreactivity

What value of polyreactivity (PSR sort gate) has been reported for the following sequence? "QVQLVESGGGLVQAGGSLRLSSAASGSIFYPYAMGWYRQAPGKARELVSTISWRGGSTYYADSVKGRFTISRDNAKNTDYVQMNRLKPEVTAVYYCAARKRPYSVINGMDYWGQGTQVTVSS"
low polyreactivity

What value of polyreactivity (PSR sort gate) has been reported for the following sequence? "QDQLVESGGGLVQAGGSLRLSCAASGTFRRYAMGWYRKAPGKERELVAAISSGGGSTYYADSVKGRFTISRDNAKNTVYLQMNSLKPEDTAVYDCAAANSYTFRYGSWGQGTQVTVSS"
high polyreactivity

What value of polyreactivity (PSR sort gate) has been reported for the following sequence? "QVQLVESGGGLVQAGGSLRLSCAASGIIFSYYALGWYRQAPGKERELVAAITRGGGRTYYADSVKGRFTISRDNAKNTVSLQMNSLKPEDTAVYYCNALSRYVENDYWGQGTQVTVSS"
high polyreactivity
